test: Ability to reverse action of CpG-ODN on WEHI 231 murine B-cell lymphoma cells; assay type: functional, cell-based, Mus musculus
Answer criterion not met if Log 1/EC50 is under 7, and criterion met if it is 7 or more.

Examples from the recorded data:
CN(C)CCCCNc1cc(-c2ccc(N3CCCCC3)cc2)nc2ccccc12	criterion met
Cc1cccc(-c2cc(NCCCN3CCN(C)CC3)c3ccccc3n2)c1	criterion met
Cc1cccc(-c2cc(NCCCn3ccnc3)c3ccccc3n2)c1	criterion not met
CN1CCN(Cc2cc(Nc3cc(-c4ccc(F)cc4)nc4ccccc34)cc(CN3CCN(C)CC3)c2O)CC1	criterion met
Cc1ccc(-c2cc(OCCN(C)C)c3ccccc3n2)cc1	criterion not met
CN1CCN(CCNc2cc(-c3ccc(F)cc3)nc3ccccc23)CC1	criterion met
Cc1ccc(-c2cc(NCCCCCO)c3ccccc3n2)cc1	criterion not met
CN1CCN(CCCNc2cc(-c3ccc(CN4CCN(C)CC4)cc3)nc3ccccc23)CC1	criterion met

Q) Tell me whether Log 1/EC50 is at least 7 here: CN1CCN(c2ccc(-c3cc(NCCN4CCCC4)c4ccccc4n3)cc2)CC1
A) criterion met

Q) Tell me whether Log 1/EC50 is at least 7 here: Cc1ccc(-c2cc(NCCCN(C)C)c3ccccc3n2)cc1
A) criterion met
